System: mouse colon carcinoma (CT-26) cells
protocol notes: (Photo-)cytotoxicity on 2D cell monolayers, CT-26
experimental conditions: CT-26, dark vs 480 nm
# PI (480 nm) listing for each entry below

Please look at CN(C)c1ccc(/C=C/c2ccnc(-c3cc(/C=C/c4ccc(N(C)C)cc4)ccn3)c2)cc1.CN(C)c1ccc(/C=C/c2ccnc(-c3cc(/C=C/c4ccc(N(C)C)cc4)ccn3)c2)cc1.F[P-](F)(F)(F)(F)F.F[P-](F)(F)(F)(F)F.[Ru+2].c1ccc(-c2ccccn2)nc1 [compound 4] and tell me its recorded PI (480 nm) on mouse colon carcinoma (CT-26) cells. > 13.7

Please look at COc1ccc(/C=C/c2ccnc(-c3cc(/C=C/c4ccc(OC)cc4)ccn3)c2)cc1.COc1ccc(/C=C/c2ccnc(-c3cc(/C=C/c4ccc(OC)cc4)ccn3)c2)cc1.COc1ccc(/C=C/c2ccnc(-c3cc(/C=C/c4ccc(OC)cc4)ccn3)c2)cc1.F[P-](F)(F)(F)(F)F.F[P-](F)(F)(F)(F)F.[Ru+2] [compound 3] and tell me its recorded PI (480 nm) on mouse colon carcinoma (CT-26) cells. > 5.2

Please look at CN(C)c1ccc(/C=C/c2ccnc(-c3cc(/C=C/c4ccc(N(C)C)cc4)ccn3)c2)cc1.CN(C)c1ccc(/C=C/c2ccnc(-c3cc(/C=C/c4ccc(N(C)C)cc4)ccn3)c2)cc1.CN(C)c1ccc(/C=C/c2ccnc(-c3cc(/C=C/c4ccc(N(C)C)cc4)ccn3)c2)cc1.F[P-](F)(F)(F)(F)F.F[P-](F)(F)(F)(F)F.[Ru+2] [compound 2] and tell me its recorded PI (480 nm) on mouse colon carcinoma (CT-26) cells. > 2.3

Please look at C=CC1=C(C)c2cc3[nH]c(cc4nc(cc5[nH]c(cc1n2)c(C)c5CCC(=O)O)C(CCC(=O)O)=C4C)c(C)c3C=C [PpIX, Protoporphyrin IX, reference compound] and tell me its recorded PI (480 nm) on mouse colon carcinoma (CT-26) cells. > 28.6

====

Lab note: IC50 readings collected with noncancerous retinal pigment epithelium (RPE-1) cells for the following compounds.
State the answer as a number, implicitly in µM.

INSERT INTO measurements (smiles_structure, observation_type, experimental_value) VALUES
  ('COc1ccc(/C=C/c2ccnc(-c3cc(/C=C/c4ccc(OC)cc4)ccn3)c2)cc1.COc1ccc(/C=C/c2ccnc(-c3cc(/C=C/c4ccc(OC)cc4)ccn3)c2)cc1.F[P-](F)(F)(F)(F)F.F[P-](F)(F)(F)(F)F.[Ru+2].c1ccc(-c2ccccn2)nc1', 'IC50', 10.2),
  ('CN(C)c1ccc(/C=C/c2ccnc(-c3cc(/C=C/c4ccc(N(C)C)cc4)ccn3)c2)cc1.F[P-](F)(F)(F)(F)F.F[P-](F)(F)(F)(F)F.[Ru+2].c1ccc(-c2ccccn2)nc1.c1ccc(-c2ccccn2)nc1', 'IC50', 7.3),
  ('C(=C\c1ccnc(-c2cc(/C=C/c3ccccc3)ccn2)c1)/c1ccccc1.C(=C\c1ccnc(-c2cc(/C=C/c3ccccc3)ccn2)c1)/c1ccccc1.C(=C\c1ccnc(-c2cc(/C=C/c3ccccc3)ccn2)c1)/c1ccccc1.F[P-](F)(F)(F)(F)F.F[P-](F)(F)(F)(F)F.[Ru+2]', 'IC50', 30.9);

Let us examine a further case.
Please look at CN(C)c1ccc(/C=C/c2ccnc(-c3cc(/C=C/c4ccc(N(C)C)cc4)ccn3)c2)cc1.CN(C)c1ccc(/C=C/c2ccnc(-c3cc(/C=C/c4ccc(N(C)C)cc4)ccn3)c2)cc1.CN(C)c1ccc(/C=C/c2ccnc(-c3cc(/C=C/c4ccc(N(C)C)cc4)ccn3)c2)cc1.F[P-](F)(F)(F)(F)F.F[P-](F)(F)(F)(F)F.[Ru+2] and tell me its recorded IC50 on noncancerous retinal pigment epithelium (RPE-1) cells. 38.4

Reference source: paper PMC7320011
